# measurement_notes: pKa measurement of unformulated amine lipid (fluorescence, method of Jayaraman et al.)
# Assay type: physicochemical
# assay_setup: 100 μM in 0.1 M phosphate buffer, pH 2.0-12.0
readout_kind: pKa

{"columns": ["compound", "pKa"],
 "data": [
  ["CCCCCCCCCCOC(=O)CCCCCCCC(=O)OCC(COC(=O)CCCCCC(=O)OC(CCCCCCCC)CCCCCCCC)COC(=O)CCCN(C)C (stereo not drawn)", 6.31],
  ["CCCCC/C=C\\C/C=C\\CCCCCCCC(=O)OCC(COC(=O)CCCN(C)C)COC(=O)CCC(OCCCCCCCC)OCCCCCCCC (stereo not drawn)", 7.39],
  ["CCCCCCCCOC(=O)CCCCCCCC(=O)OCC(COC(=O)CCC(OCCCCCCCC)OCCCCCCCC)COC(=O)OCCCN(CC)CC (stereo not drawn)", 6.4],
  ["CCCCC/C=C\\C/C=C\\CCCCCCCC(=O)OCC(COC(=O)CCC(OCCCCCCCC)OCCCCCCCC)COC(=O)NC1CCN(CC)CC1 (stereo not drawn)", 7.84],
  ["CCCCCCCCCCOC(=O)CCCCCCCC(=O)OCC(COC(=O)CCCN(CC)CC)COC(=O)CCC(OCCCCCCCC)OCCCCCCCC (stereo not drawn)", 6.45],
  ["CCCCCCCCCCOC(=O)CCCCCCCC(=O)OCC(COC(=O)CCCCCC(=O)OC(CCCCCCCC)CCCCCCCC)COC(=O)NCCN(CC)CC (stereo not drawn)", 6.65]
]}
